Values compiled from patent US20240317721A1.

# Measurement target: KRasG12C (M1-K169, biotinylated on the N-terminus) (Homo sapiens (Human), UniProt P01116, G12C)
# Assay summary: Covalent competition assay: scintillation proximity assay (SPA) quantifying covalent modification of KRASG12C
# Run parameters: competition with radiolabeled covalent probe (Compound B/Compound A), 2 hours incubation, 10 nM KRasG12C
# Experimental: Cells were harvested by centrifugation and frozen at −80° C. until further processing. […] The cells were lysed by 4 passages through an Avestin Emulsiflex at about 20000 psi and insoluble debris removed by centrifugation and filtered through a 0.45 µm Durapore membrane (Millipore). […] Eluted protein fractions were analyzed by Novex NuPage 4-12% PAGE. […] Positive fractions were determined by PAGE (Novex NuPage 4-12% BisTris) analysis. […]
Measure name: IC50 (nM)

Illustrative cases are given below, each with its answer.
molecule="C=CC(=O)N1CC2(CC(n3nc(N4CC[C@@H](CN5CCCC6CN(C)C(=O)C65)CC4(C)C)c(-c4c(Cl)c(Cl)cc5[nH]ncc45)c3C)C2)C1 (single isomer, unassigned) [Example 262b]" endpoint_value=7
molecule="C=CC(=O)N1CC2(CC(n3nc(N4CCC(N(C)C5COC5)CC45CCC5)c(-c4c(Cl)c(C)cc5[nH]nc(N)c45)c3C)C2)C1 (single isomer, unassigned) [Example 115b]" endpoint_value=246

(A) C=CC(=O)N1CC2(CC(n3nc(N4CC[C@@H](CN5C[C@H](O)C[C@@H](F)C5)CC4(C)C)c(-c4c(Cl)c(Cl)cc5[nH]ncc45)c3C)C2)C1 (single isomer, unassigned) [Example 300b]
(B) C=CC(=O)N1CC2(CC(n3nc(N4CC[C@@H](CN5CC6(COCCN6C)C5)CC4(C)C)c(-c4c(Cl)c(Cl)cc5[nH]ncc45)c3C)C2)C1 (single isomer, unassigned) [Example 291b]
(C) C=CC(=O)N1CC2(CC(n3nc(N4CC[C@@H](CN5CC6(CCCN6C(C)=O)C5)CC4(C)C)c(-c4c(Cl)c(Cl)cc5[nH]ncc45)c3C)C2)C1 (single isomer, unassigned) [Example 285a]
IN: Kindly order the items shown according to IC50, from the highest value down. Write the labels in rank order as requested.
OUT: C, A, B

###

# Measurement target: KRasG12C (M1-K169, biotinylated on the N-terminus) (Homo sapiens (Human), UniProt P01116, G12C)
# Assay summary: Covalent competition assay: scintillation proximity assay (SPA) quantifying covalent modification of KRASG12C
# Run parameters: competition with radiolabeled covalent probe (Compound B/Compound A), 2 hours incubation, 10 nM KRasG12C
Measured IC50 by item

Solved entries:
compound="C=CC(=O)N1CC2(CC(n3nc(N4CCN(C5CCOCC5)CC4(C)C)c(-c4c(Cl)c(C)cc5[nH]ncc45)c3C)C2)C1 (single isomer, unassigned) [Example 134a]" endpoint_value="> 5000 nM"
compound="C=CC(=O)N1CC2(CC(n3nc(N4CC(=O)N(C)CC45CCC5)c(-c4c(Cl)c(C)cc5[nH]ncc45)c3C)C2)C1 (single isomer, unassigned) [Example 65a]" endpoint_value="> 5000 nM"
compound="C=CC(=O)N1CC2(CC(n3nc(N4CC[C@@H](CN5CCOCC56COC6)CC4(C)C)c(-c4c(C)c(Cl)cc5[nH]ncc45)c3C)C2)C1 (single isomer, unassigned) [Example 302a]" endpoint_value="> 5000 nM"
compound="C=CC(=O)N1CC2(CC(n3nc(N4CC[C@@H](CN5C[C@@H]6CN(C(C)=O)C[C@@H]6C5)CC4(C)C)c(-c4c(Cl)c(Cl)cc5[nH]ncc45)c3C)C2)C1 (single isomer, unassigned) [Example 295b]" endpoint_value="6 nM"
compound="C=CC(=O)N1CC2(CC(n3nc(N4CC[C@@H](CN5CCCC6CN(C)C(=O)C65)CC4(C)C)c(-c4c(Cl)c(Cl)cc5[nH]ncc45)c3C)C2)C1 (single isomer, unassigned) [Example 261a]" endpoint_value="> 5000 nM"
compound="C=CC(=O)N1CC2(CC(n3nc(N4CC[C@@H](CN5CCN(C6COC6)C6COCC65)CC4(C)C)c(-c4c(Cl)c(Cl)cc5[nH]ncc45)c3C)C2)C1 (single isomer, unassigned) [Example 281a]" endpoint_value="1670 nM"
compound="C=CC(=O)N1CC2(CC(n3nc(N4CC5(CCOC5)C4)c(-c4c(Cl)c(Cl)cc5[nH]ncc45)c3C)C2)C1 (single isomer, unassigned) [Example 108a]" endpoint_value="> 5000 nM"

IN: Return reported IC50; argument: C=CC(=O)N1CC2(CC(n3nc(N4CCN(Cc5ccccc5)CC45CCC5)c(-c4c(Cl)c(C)cc5[nH]ncc45)c3C)C2)C1 (single isomer, unassigned) [Example 100b]
OUT: 86 nM
